# assayed-system: T1, human activated Protein C (human, UniProt P04070 43-461)
# T1 construct: also called human aPC; hAPC
# assay-method-text: direct ELISA, antigen coated, Fab
pEC50: recorded values
# log scale: pEC50 equals minus log10 of the concentration in mol/L

In the examples that follow, each entry is paired with its recorded pEC50.
>>> value("C7I7 Fab (Fab, V domains shown, Human Fab (lambda) from a phage library, expressed in E. coli; also called C717) VH: EVQLLESGGGLVQPGGSLRLSCAASGFTFGNHWMTWVRQAPGKGLEWVSGVSWNGSRTHYADSVKGRFTISRDNSKNTLYLQMNSLRAEDTAVYYCALTGRSGWMRFPNWFDPWGQGTLVTVTS VL: QSVLTQPPSASGTPGQRVTISCTGSSSNIGAGYDVHWYQQLPGTAPKLLIYGNSNRPSGVPDRFSGSKSGTSASLAISGLRSEDEAAYYCSSYVGSDLVVFGGGTKLTVLG")
8.20
>>> value("C25K23 Fab (Fab, V domains shown, Human Fab (lambda) from a phage library, expressed in E. coli; also called Fab C25K23) VH: EVQLLESGGGLVQPGGSLRLSCAASGFTFSSYWMSWVRQAPGKGLEWVSGVSWNGSRTHYADSVKGRFTISRDNSKNTLYLQMNSLRAEDTAVYYCALTGRSGWMRFPNWFDPWGQGTLVTVTS VL: QSVLTQPPSASGTPGQRVTISCTGSSSNIGAAYDVHWYQQLPGTAPKLLIYGNNKRPSGVPDRFSGSKSGTSASLAISGLRSEDEADYYCQSYDSSLSGSVFGGGTKLTVLG")
8.37

Here is another binder to look at.
input: Could you share which pEC50 value was measured for T46J23 Fab (Fab, V domains shown, Human Fab (lambda), expressed in E. coli) VH: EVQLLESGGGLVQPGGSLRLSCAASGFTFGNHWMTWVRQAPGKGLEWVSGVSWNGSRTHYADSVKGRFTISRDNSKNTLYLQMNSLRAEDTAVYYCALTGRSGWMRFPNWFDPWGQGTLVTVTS VL: LTQPPSASGTPGQRVTISCTGTSSNIGAGYDVHWYQQLPGTAPKLLIYDNNNRPSGVPDRFSGSKSGTSASLAISGLRSEDEADYYCAAWDDSLNGVVFGGGTKLTVLG ?
output: 8.17
